This section presents compounds with their documented cell viability, A375 XP, 1μΜ values.
- System: A375-XP cells (Vemurafenib-resistant)
- test_summary: Kinase inhibitor library screening, PrestoBlue cell viability, 1 or 10 μM, 72 h
- test_context: A375 XP, 1μΜ, 72 h; in %
- Method: After 72 h of treatment, cell viability was assessed using the PrestoBlue Cell Viability Reagent (ThermoFisher Scientific). Measurements were performed with the CLARIOstar Monochromator microplate reader (BMG Labtech). Kinase inhibitor library screening. […] Drugs were added at 2 different concentrations, 1 and 10 μM, for 72 h and cell viability was assessed using the PrestoBlue Cell Viability assay. […] Each cell line was analyzed at least in duplicate. […]
result_type: cell viability, A375 XP, 1μΜ

{"smiles_input": "N#C/C(=C\\c1ccc(O)c(O)c1)C(=O)NCc1ccccc1", "assay_target": "A375-XP cells (Vemurafenib-resistant)", "observed_result": 99.9}
{"smiles_input": "CN(C)Cc1cccc(N/C(=C2\\C(=O)Nc3cc(C(=O)N(C)C)ccc32)c2ccccc2)c1", "assay_target": "A375-XP cells (Vemurafenib-resistant)", "observed_result": 99.2}
{"smiles_input": "COc1cccc(-c2cc(=O)c3ccccc3o2)c1N", "assay_target": "A375-XP cells (Vemurafenib-resistant)", "observed_result": 102.6}
{"smiles_input": "C#Cc1cccc(Nc2ncnc3cc(OCCOC)c(OCCO)cc23)c1", "assay_target": "A375-XP cells (Vemurafenib-resistant)", "observed_result": 100.2}
{"smiles_input": "O=c1cc(N2CCOCC2)oc2c(-c3cccc4c3sc3ccccc34)cccc12", "assay_target": "A375-XP cells (Vemurafenib-resistant)", "observed_result": 98.6}
{"smiles_input": "O=C1NC(=O)C(c2ccccc2[N+](=O)[O-])=C1Nc1ccc(O)c(Cl)c1", "assay_target": "A375-XP cells (Vemurafenib-resistant)", "observed_result": 100.0}
{"smiles_input": "CN1CCN(c2ccc3nc(-c4c(N)c5c(F)cccc5[nH]c4=O)[nH]c3c2)CC1", "assay_target": "A375-XP cells (Vemurafenib-resistant)", "observed_result": 97.7}
